# assay summary: molar heat capacity at constant pressure
# test settings: 413.15 K; 101.33 kPa; Liquid; Large sample (1 g) DSC
Quick rule for you: molar heat capacity at constant pressure at 400 J/K/mol or higher means Y, lower means N.

Use these answered entries as a reference point.
[
  {
    "compound": "CCCCCCCCCCCBr",
    "label value": "Y"
  },
  {
    "compound": "CCCCCCCBr",
    "label value": "N"
  },
  {
    "compound": "CCCCCCBr",
    "label value": "N"
  },
  {
    "compound": "CCCCCCCCCCCCCCBr [1-tetradecyl bromide]",
    "label value": "Y"
  }
]

Task item: Assess whether reported molar heat capacity at constant pressure for CCCCCCCCCBr sits at 400 J/K/mol or higher.
Reply: N

Task item: Assess whether reported molar heat capacity at constant pressure for CCCCCCCCCCCCBr sits at 400 J/K/mol or higher.
Reply: Y

Task item: Assess whether reported molar heat capacity at constant pressure for CCCCCCCCBr sits at 400 J/K/mol or higher.
Reply: N

* * *

molar heat capacity at constant pressure values for the compounds below.
# assay summary: molar heat capacity at constant pressure
# test settings: 338.15 K; 101.33 kPa; Liquid; Large sample (1 g) DSC
Numbers after ± are expanded uncertainties.

Example entries begin here.
[
  {
    "compound": "CCCCCCCCCCCBr [1-bromoundecane]",
    "readout value": "393.17 ± 17 J/K/mol"
  },
  {
    "compound": "CCCCCCCCCCCCCCBr [1-tetradecyl bromide]",
    "readout value": "476.73 ± 20 J/K/mol"
  },
  {
    "compound": "CCCCCCBr [1-bromohexane]",
    "readout value": "232.62 ± 9.9 J/K/mol"
  },
  {
    "compound": "CCCCCCCCCCBr [1-bromodecane]",
    "readout value": "354.33 ± 15 J/K/mol"
  },
  {
    "compound": "CCCCCCCBr [1-bromoheptane]",
    "readout value": "264.1 ± 11 J/K/mol"
  },
  {
    "compound": "CCCCCCCCCCCCBr [1-bromododecane]",
    "readout value": "424.02 ± 18 J/K/mol"
  },
  {
    "compound": "CCCCCCCCBr [1-bromooctane]",
    "readout value": "292.56 ± 12 J/K/mol"
  }
]

Task item: Form field: reported molar heat capacity at constant pressure of CCCCCCCCCBr [1-bromononane]
Reply: 326.41 ± 14 J/K/mol

* * *

molar heat capacity at constant pressure values for the molecules below.
# assay summary: molar heat capacity at constant pressure
# test settings: 373.15 K; 101.33 kPa; Liquid; Large sample (1 g) DSC
Numbers after ± are expanded uncertainties.
Please state the value followed by its unit.

[
  {
    "molecule": "CCCCCCCCCCCCCCBr [1-tetradecyl bromide]",
    "molar heat capacity at constant pressure": "499.42 ± 21 J/K/mol"
  }
]

Task item: Form field: reported molar heat capacity at constant pressure of CCCCCCCCBr
Reply: 310.43 ± 13 J/K/mol

Task item: Form field: reported molar heat capacity at constant pressure of CCCCCCCCCBr
Reply: 342.26 ± 15 J/K/mol

Task item: Form field: reported molar heat capacity at constant pressure of CCCCCCCCCCBr
Reply: 371.8 ± 16 J/K/mol

Task item: Form field: reported molar heat capacity at constant pressure of CCCCCCBr
Reply: 243.96 ± 10 J/K/mol

Task item: Form field: reported molar heat capacity at constant pressure of CCCCCCCCCCCBr
Reply: 410.6 ± 17 J/K/mol

Task item: Form field: reported molar heat capacity at constant pressure of CCCCCCCBr
Reply: 276.98 ± 12 J/K/mol

Task item: Form field: reported molar heat capacity at constant pressure of CCCCCCCCCCCCBr
Reply: 445.62 ± 19 J/K/mol

From: the NIST ThermoML archive (doi:10.1007/s10765-016-2064-y)
